# System: HS 578T breast
# Assay info: NCI-60 one-dose screen, 48 h
# Assay context: 10 µM unless noted
This is part of a sample that, as a whole, favours compounds with a hit. Of some 83,000 tested, about 20% had one in any assay. The source made the active and inactive calls. How the source made its calls: active means growth percent below 10; inactive means the rest.
Outcome codes: TRUE for active, FALSE for inactive

{"Compound": "C=C(C)[C@@H]1CC[C@]2(C(=O)ON)CC[C@]3(C)[C@H](CC[C@@H]4[C@@]5(C)C/C(=C/c6ccc(Br)cc6)C(=O)C(C)(C)[C@@H]5CC[C@]43C)[C@@H]12", "Class name": "FALSE"}
{"Compound": "COc1ccc(OC)c([C@H]2c3[nH]c4ccccc4c3C[C@H]3C(=O)N(CCCCCCC(=O)NO)CC(=O)N23)c1", "Class name": "FALSE"}
{"Compound": "COc1ccc2c(c1)oc1c3[nH]c4ccccc4c3c3c(c21)C(=O)N(O)C3=O", "Class name": "FALSE"}
{"Compound": "Cc1ccc(-n2cc(/C=C/C(=O)c3ccc(S(C)(=O)=O)cc3)c(-c3ccc(S(C)(=O)=O)cc3)n2)cc1", "Class name": "FALSE"}
{"Compound": "COc1ccc(S(=O)(=O)n2cc(C=O)c3ccccc32)c(OC)c1", "Class name": "FALSE"}
{"Compound": "c1cncc(-c2cn3nc(-c4c[nH]c5ccccc45)sc3n2)c1", "Class name": "FALSE"}
{"Compound": "CC(C)(C)n1nnnc1C(Nc1nccs1)c1cc2cccc3ccc4cccc1c4c32 (centres undefined)", "Class name": "FALSE"}
{"Compound": "CCNC(=O)Oc1ccc(/C(=C(/C)c2ccccc2)c2ccc(OCCN3CCCC3)cc2)cc1", "Class name": "FALSE"}
{"Compound": "O=C(COc1ccc(C2SCC(=O)N2c2ccccc2)cc1)c1ccccc1 (centres undefined)", "Class name": "FALSE"}
{"Compound": "O=C1c2c(c3c4ccc(Br)cc4oc3c3[nH]c4ccccc4c23)C(=O)N1CCO", "Class name": "FALSE"}
{"Compound": "COC(=O)Nc1ccc(-c2nc(-c3cccc(O)c3)c(-c3ccnc(Br)c3)[nH]2)cc1", "Class name": "FALSE"}
{"Compound": "CCOC(=O)c1c(Nc2ccccc2)nn2c(-c3ccc(Br)cc3)ccnc12", "Class name": "FALSE"}
{"Compound": "O=C1c2cc(Br)ccc2-n2c1nc1cc(Br)ccc1c2=O", "Class name": "FALSE"}
{"Compound": "COc1cc2c3c(n(CCCNCC4CC4)c(=O)c2cc1OC)-c1cc2c(cc1C3=O)OCO2", "Class name": "FALSE"}
{"Compound": "O=C(CSc1ccc(-c2nc3ccccc3[nH]2)cn1)N1CCN(c2ccccc2F)CC1", "Class name": "FALSE"}
{"Compound": "C#CCOc1ccc(C(Nc2ccc(Cl)cc2)c2nnnn2C2CCCCC2)cc1 (centres undefined)", "Class name": "FALSE"}
{"Compound": "O=C(Nc1cc(Cl)cc(Cl)c1)Nc1ccc2oc(=O)ccc2c1", "Class name": "FALSE"}
{"Compound": "Cc1nc(-c2cc3ccccc3c(N3CCN(C)CC3)n2)cs1", "Class name": "FALSE"}
{"Compound": "C#C[C@]1(O)CC[C@H]2[C@@H]3CC=C4c5sc(-c6ccc(OC)cc6)nc5CC[C@]4(C)[C@H]3CC[C@@]21C", "Class name": "TRUE"}
